- Experimental System: Proteasome subunit beta type-8 (Homo sapiens, UniProt P28062)
- Sequence (P28062 whole entry): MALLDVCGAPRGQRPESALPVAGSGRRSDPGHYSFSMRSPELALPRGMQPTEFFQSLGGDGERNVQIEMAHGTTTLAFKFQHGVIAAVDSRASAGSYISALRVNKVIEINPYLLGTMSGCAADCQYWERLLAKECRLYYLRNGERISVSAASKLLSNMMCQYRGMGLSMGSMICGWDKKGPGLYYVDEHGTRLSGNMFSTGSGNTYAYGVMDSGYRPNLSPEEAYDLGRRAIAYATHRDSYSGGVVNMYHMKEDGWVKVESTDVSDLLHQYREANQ
- Test Details: Inhibition of human 20S immunoproteasome beta 5 chymotrypsin-like activity
pIC50: −log10 of the molar value.
Property Measured: pIC50

Example cases with answers are listed next.
1. C[C@H](NC(=O)[C@H](CC(=O)NOC(C)(C)C)NC(=O)CCc1ccccc1)C(=O)NCc1cccc2[nH]ccc12 | 7.55
2. COC[C@H](NC(=O)CCc1ccccc1)C(=O)N[C@@H](C)C(=O)NCc1cccc2ccccc12 | 4.66
3. C[C@H](NC(=O)[C@H](CCC(=O)NC(C)(C)C)NC(=O)CCc1ccccc1)C(=O)NCc1ccc(F)c2ccccc12 | 8.80

(a) COC[C@H](NC(=O)[C@H](CC(=O)NOC(C)(C)C)NC(=O)CCc1ccccc1)C(=O)NCc1cccc(OC)c1OC
(b) C[C@H](NC(=O)[C@H](CC(=O)NOC(C)(C)C)NC(=O)CCc1ccccc1)C(=O)NCc1ccnc2ccccc12
(c) C[C@H](NC(=O)[C@H](CC(=O)NOC(C)(C)C)NC(=O)CCc1ccccc1)C(=O)NCc1cccc2ncccc12
Please rank these molecules by pIC50 in descending order. Reply format: the labels, ordered as requested.
a, c, b

(A) COC[C@H](NC(=O)[C@H](CC(=O)NOC(C)(C)C)NC(=O)CCc1ccccc1)C(=O)NCc1cccc2cccnc12
(B) COC[C@H](NC(=O)[C@H](CC(=O)NOC(C)(C)C)NC(=O)CCc1ccccc1)C(=O)NCc1cccc(OC)c1
Sort A and B by pIC50 descending and give the first. Kindly state the label of the option you pick.
B
(B: 7.84, A: 7.08)

* * *

- Experimental System: Proteasome subunit beta type-8 (Homo sapiens)
- Test Details: Inhibition of human 20S immunoproteasome beta 5 chymotrypsin-like activity in human KARPAS-1106P cells incubated for 2 hrs by proteasome-Glo assay
- Format: cell-based
Property Measured: pIC50
Bear in mind: pIC50 is minus log10 of a mol/L concentration; give just that figure.

Lab note: C[C@H](NC(=O)[C@H](CCC(=O)NC(C)(C)C)NC(=O)CCc1ccccc1)C(=O)NCc1ccc(F)c2ccccc12 gave pIC50 of 7.41

* * *

List of EC50 values.
- Test Details: Inhibition of anti-CD3 antibody-stimulated T cell proliferation in human PBMCs
- Type: functional, tissue-based
- Setup Conditions: PBMC
Note: unit nM is implicit; provide only the numeric part.

Before answering, review these 3 worked examples.
1) COC[C@H](NC(=O)[C@H](CC(=O)NC(C)(C)C)NS(=O)(=O)c1ccc(C)cc1)C(=O)NCc1ccc(F)c2ccccc12 | 73
2) COC[C@H](NC(=O)[C@H](CCC(=O)NC(C)(C)C)NS(=O)(=O)c1ccc(C)cc1)C(=O)NCc1ccc(F)c2ccccc12 | 18
3) C[C@H](NC(=O)[C@H](CCC(=O)NC(C)(C)C)NC(=O)CCc1ccccc1)C(=O)NCc1ccc(F)c2ccccc12 | 44

Input C[C@H](NC(=O)[C@H](CC(=O)NC(C)(C)C)NC(=O)C(=O)c1c[nH]c2ccccc12)C(=O)NCc1cccc2ccccc12 . Output EC50: 21

Value of EC50 reported for the compound Cc1cc(C(=O)N[C@@H](CCC(=O)NC(C)(C)C)C(=O)N[C@@H](C)C(=O)NCc2ccc(F)c3ccccc23)no1 is 73

Recorded EC50 (compound Cc1ccc(S(=O)(=O)N[C@@H](CCC(=O)NC(C)(C)C)C(=O)N[C@@H](C)C(=O)NCc2ccc(F)c3ccccc23)cc1 ): 39

* * *

- Species on record: Homo sapiens
- Test Details: Inhibition of alpha-chymotrypsin (unknown origin) at 11.1 to 100 uM
- Setup Conditions: dose 11.1-100 µM
The source made the active and inactive calls. The calls are words filed in the database; no cut-off is given here.
Result category, one only: active, inactive

What did the test return for Cc1cc(C(=O)N[C@@H](CCC(=O)NC(C)(C)C)C(=O)N[C@@H](C)C(=O)NCc2ccc(F)c3ccccc23)no1 ?
inactive

* * *

- Experimental System: Procathepsin L (Homo sapiens)
- Test Details: Inhibition of cathepsin L (unknown origin) at 11.1 to 100 uM
- Setup Conditions: dose 11.1-100 µM
Calls of active or inactive are those of the source. The rule behind the calls is not given here.
Respond only with the outcome that fits, drawn from TRUE for active, FALSE for inactive

Sample answers from the record:
1) C[C@H](NC(=O)[C@H](CCC(=O)NC(C)(C)C)NC(=O)CCc1ccccc1)C(=O)NCc1ccc(F)c2ccccc12 | FALSE
2) Cc1ccc(S(=O)(=O)N[C@@H](CCC(=O)NC(C)(C)C)C(=O)N[C@@H](C)C(=O)NCc2ccc(F)c3ccccc23)cc1 | FALSE
3) Cc1cc(C(=O)N[C@@H](CCC(=O)NC(C)(C)C)C(=O)N[C@@H](C)C(=O)NCc2ccc(F)c3ccccc23)no1 | FALSE
4) COC[C@H](NC(=O)[C@H](CCC(=O)NC(C)(C)C)NS(=O)(=O)c1ccc(C)cc1)C(=O)NCc1ccc(F)c2ccccc12 | FALSE
5) COC[C@H](NC(=O)[C@H](CC(=O)NC(C)(C)C)NS(=O)(=O)c1ccc(C)cc1)C(=O)NCc1ccc(F)c2ccccc12 | FALSE

Just curious, what result did C[C@H](NC(=O)[C@H](CC(=O)NC(C)(C)C)NC(=O)C(=O)c1c[nH]c2ccccc12)C(=O)NCc1cccc2ccccc12 get here?
TRUE

* * *

- Experimental System: Proteasome subunit beta type-10 (Homo sapiens) (UniProt P40306)
- Sequence (P40306 whole entry): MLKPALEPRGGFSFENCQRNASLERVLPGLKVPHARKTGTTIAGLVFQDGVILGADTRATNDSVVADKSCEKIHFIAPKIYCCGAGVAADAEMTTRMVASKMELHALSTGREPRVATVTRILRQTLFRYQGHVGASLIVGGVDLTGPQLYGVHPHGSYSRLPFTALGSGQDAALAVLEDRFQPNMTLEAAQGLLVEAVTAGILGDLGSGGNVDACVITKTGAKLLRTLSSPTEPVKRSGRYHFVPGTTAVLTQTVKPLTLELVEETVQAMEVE
- Test Details: Inhibition of human 20S immunoproteasome beta 2 at 33.3 uM relative to control
Recorded inhibition by entry

Sample records with inhibition:
1) C[C@H](NC(=O)[C@H](CCC(=O)NC(C)(C)C)NC(=O)CCc1ccccc1)C(=O)NCc1ccc(F)c2ccccc12 | < 50%
2) COC[C@H](NC(=O)[C@H](CC(=O)NC(C)(C)C)NS(=O)(=O)c1ccc(C)cc1)C(=O)NCc1ccc(F)c2ccccc12 | < 50%
3) C[C@H](NC(=O)[C@H](CC(=O)NC(C)(C)C)NC(=O)C(=O)c1c[nH]c2ccccc12)C(=O)NCc1cccc2ccccc12 | < 50%
4) Cc1ccc(S(=O)(=O)N[C@@H](CCC(=O)NC(C)(C)C)C(=O)N[C@@H](C)C(=O)NCc2ccc(F)c3ccccc23)cc1 | < 50%
5) Cc1cc(C(=O)N[C@@H](CCC(=O)NC(C)(C)C)C(=O)N[C@@H](C)C(=O)NCc2ccc(F)c3ccccc23)no1 | < 50%

# ---- query compound ----
Record summary for COC[C@H](NC(=O)[C@H](CCC(=O)NC(C)(C)C)NS(=O)(=O)c1ccc(C)cc1)C(=O)NCc1ccc(F)c2ccccc12 : reported inhibition = < 50%

* * *

- Species: Homo sapiens
- Test Details: Selectivity index, ratio of IC50 for inhibition of human constitutive 20S proteasome beta 5 chymotrypsin-like activity to IC50 for inhibition of human 20S immunoproteasome beta 5 chymotrypsin-like activity
Property Measured: Ratio IC50

Reference set, count: 2
1. C[C@H](NC(=O)[C@H](CC(=O)NOC(C)(C)C)NC(=O)CCc1ccccc1)C(=O)NCc1cccc2ncccc12 | 11
2. COC[C@H](NC(=O)[C@H](CC(=O)NC(C)(C)C)NC(=O)c1cc(C)on1)C(=O)NCc1cccc2ccccc12 | 274

(1) COC[C@H](NC(=O)[C@H](CC(=O)NC(C)(C)C)NC(=O)CCc1ccccc1)C(=O)NCc1cccc2ccccc12
(2) C[C@H](NC(=O)[C@H](CC(=O)NOC(C)(C)C)NC(=O)CCc1ccccc1)C(=O)NCc1cccc2[nH]ccc12
(3) COC[C@H](NC(=O)[C@H](CC(=O)N1CCCC1)NC(=O)CCc1ccccc1)C(=O)NCc1cccc2ccccc12
(4) COC[C@H](NC(=O)[C@H](CC(=O)NOC(C)(C)C)NC(=O)CCc1ccccc1)C(=O)NCc1cccc(OC)c1OC
(5) COC[C@H](NC(=O)[C@H](CC(=O)NOC(C)(C)C)NC(=O)CCc1ccccc1)C(=O)NCc1cccc2cccnc12
Put these in order: smallest Ratio IC50 first, largest last. Form entry: ranked labels (order as requested).
4, 2, 5, 3, 1
(4: 2, 2: 6, 5: 12, 3: 28, 1: 71)

(a) COC[C@H](NC(=O)[C@H](CC(=O)N1CCCCC1)NC(=O)CCc1ccccc1)C(=O)NCc1cccc2ccccc12
(b) C[C@H](NC(=O)[C@H](CC(=O)NOC(C)(C)C)NC(=O)CCc1ccccc1)C(=O)NCc1ccnc2ccccc12
(c) COC[C@H](NC(=O)[C@H](CC(=O)NOC(C)(C)C)NC(=O)CCc1ccccc1)C(=O)NCc1cccc(OC)c1
Please put the entries in order of rising Ratio IC50. // ordering of labels required in reply
c, b, a
(c: 7, b: 23, a: 58)

(I) COC[C@H](NC(=O)[C@H](CC(=O)NOC(C)(C)C)NC(=O)CCc1ccccc1)C(=O)NCc1cccc2c1NCCC2
(II) CCN(CC)C(=O)C[C@H](NC(=O)CCc1ccccc1)C(=O)N[C@@H](COC)C(=O)NCc1cccc2ccccc12
Look at I and II . Which one has the lower recorded Ratio IC50 number? Please reply using the label of the selected record.
II
